System: Escherichia coli TOP10
Test: shrunken log2 fold change of peptide-encoding DNA abundance (4.5 h post-induction vs induction); higher = less antimicrobial activity (less host growth inhibition)
Run Conditions: time post-induction: 4.5 h; library: site-saturation at positions 5, 18, 19, 20
Reported shrunken log2 fold change values are given for each entry in this list.

>>> print(df.to_string())
            sequence_input     experimental_system  recorded_result
0  RRIRHRPPRLPRPRPRPNGTPRP  Escherichia coli TOP10           -0.297
1  RRIRYRPPRLPRPRPRPSPAPRP  Escherichia coli TOP10            0.156

Now for a further sequence.
*Q* For "RRIRGRPPRLPRPRPRPDPTPRP" , what is its reported shrunken log2 fold change?
*A* 1.06

----------
Test system: Escherichia coli TOP10
Test: shrunken log2 fold change of peptide-encoding DNA abundance (4.5 h post-induction vs induction); higher = less antimicrobial activity (less host growth inhibition)
Run Conditions: time post-induction: 4.5 h; library: site-saturation at positions 5, 18, 19, 20
Test Readout: shrunken log2 fold change
I'd appreciate a reply containing only the number, no unit.

Previously resolved entries follow.
>>> print(df.to_string())
            sequence_input  recorded_result
0  RRIRYRPPRLPRPRPRPRSDPRP           -0.113
1  RRIRDRPPRLPRPRPRPQRLPRP            0.116
2  RRIRVRPPRLPRPRPRPPGNPRP             0.17
3  RRIRGRPPRLPRPRPRPPARPRP              1.2
4  RRIRARPPRLPRPRPRPYFYPRP           -0.619

*Q* For "RRIRLRPPRLPRPRPRPLVPPRP" , what is its reported shrunken log2 fold change?
*A* -0.258

*Q* For "RRIRCRPPRLPRPRPRPRNIPRP" , what is its reported shrunken log2 fold change?
*A* -0.33

*Q* For "RRIRPRPPRLPRPRPRPMEKPRP" , what is its reported shrunken log2 fold change?
*A* -0.00992

*Q* For "RRIRCRPPRLPRPRPRPHQWPRP" , what is its reported shrunken log2 fold change?
*A* 0.321

*Q* For "RRIRNRPPRLPRPRPRPFIQPRP" , what is its reported shrunken log2 fold change?
*A* -0.737

*Q* For "RRIRCRPPRLPRPRPRPTGMPRP" , what is its reported shrunken log2 fold change?
*A* -0.013

*Q* For "RRIRQRPPRLPRPRPRPGALPRP" , what is its reported shrunken log2 fold change?
*A* 0.0446

*Q* For "RRIRFRPPRLPRPRPRPLKRPRP" , what is its reported shrunken log2 fold change?
*A* -0.227

*Q* For "RRIRIRPPRLPRPRPRPWFIPRP" , what is its reported shrunken log2 fold change?
*A* -0.243

*Q* For "RRIRKRPPRLPRPRPRPTEVPRP" , what is its reported shrunken log2 fold change?
*A* 0.158

*Q* For "RRIRFRPPRLPRPRPRPPNGPRP" , what is its reported shrunken log2 fold change?
*A* -0.0591

*Q* For "RRIRFRPPRLPRPRPRPSWSPRP" , what is its reported shrunken log2 fold change?
*A* -0.557

*Q* For "RRIRHRPPRLPRPRPRPNQYPRP" , what is its reported shrunken log2 fold change?
*A* -0.663

*Q* For "RRIRERPPRLPRPRPRPSAPPRP" , what is its reported shrunken log2 fold change?
*A* 0.18

*Q* For "RRIRQRPPRLPRPRPRPACWPRP" , what is its reported shrunken log2 fold change?
*A* 0.401

*Q* For "RRIRGRPPRLPRPRPRPMDWPRP" , what is its reported shrunken log2 fold change?
*A* 0.929

----------
System: Escherichia coli TOP10
Test: shrunken log2 fold change of peptide-encoding DNA abundance (4.5 h post-induction vs induction); higher = less antimicrobial activity (less host growth inhibition)
Run Conditions: time post-induction: 4.5 h; library: site-saturation at positions 5, 18, 19, 20
Reported shrunken log2 fold change values are given for each entry in this list.
I'd appreciate a reply containing only the number, no unit.

Previously resolved entries follow.
>>> print(df.to_string())
            sequence_input  recorded_result
0  RRIRSRPPRLPRPRPRPNTWPRP           -0.637
1  RRIRERPPRLPRPRPRPEMQPRP          -0.0367

*Q* For "RRIRDRPPRLPRPRPRPDKRPRP" , what is its reported shrunken log2 fold change?
*A* 0.00902

----------
System: Escherichia coli TOP10
Test: shrunken log2 fold change of peptide-encoding DNA abundance (4.5 h post-induction vs induction); higher = less antimicrobial activity (less host growth inhibition)
Run Conditions: time post-induction: 4.5 h; library: site-saturation at positions 5, 18, 19, 20
Test Readout: shrunken log2 fold change
I'd appreciate a reply containing only the number, no unit.

Previously resolved entries follow.
>>> print(df.to_string())
            sequence_input               test_readout  recorded_result
0  RRIRRRPPRLPRPRPRPLDWPRP  shrunken log2 fold change            0.297
1  RRIRVRPPRLPRPRPRPGIWPRP  shrunken log2 fold change            0.339
2  RRIRMRPPRLPRPRPRPRHKPRP  shrunken log2 fold change            0.402
3  RRIRPRPPRLPRPRPRPAQDPRP  shrunken log2 fold change           0.0233
4  RRIRMRPPRLPRPRPRPTGFPRP  shrunken log2 fold change             1.12

*Q* For "RRIRTRPPRLPRPRPRPVLFPRP" , what is its reported shrunken log2 fold change?
*A* -0.193

*Q* For "RRIRLRPPRLPRPRPRPMAWPRP" , what is its reported shrunken log2 fold change?
*A* -0.0215

*Q* For "RRIRERPPRLPRPRPRPDMQPRP" , what is its reported shrunken log2 fold change?
*A* -0.184

*Q* For "RRIRQRPPRLPRPRPRPSIYPRP" , what is its reported shrunken log2 fold change?
*A* -0.988

*Q* For "RRIRARPPRLPRPRPRPNSGPRP" , what is its reported shrunken log2 fold change?
*A* -0.0211

*Q* For "RRIRCRPPRLPRPRPRPVSPPRP" , what is its reported shrunken log2 fold change?
*A* 0.198

*Q* For "RRIRNRPPRLPRPRPRPPKPPRP" , what is its reported shrunken log2 fold change?
*A* 0.145

----------
Reported shrunken log2 fold change values are given for each entry in this list.
Tested on: Escherichia coli TOP10
Test: shrunken log2 fold change of peptide-encoding DNA abundance (4.5 h post-induction vs induction); higher = less antimicrobial activity (less host growth inhibition)
Run Conditions: time post-induction: 4.5 h; library: site-saturation at positions 5, 18, 19, 20
I'd appreciate a reply containing only the number, no unit.

Previously resolved entries follow.
>>> df
            sequence_input  recorded_result
0  RRIRTRPPRLPRPRPRPEVEPRP           0.0992
1  RRIRPRPPRLPRPRPRPARQPRP            0.253
2  RRIRFRPPRLPRPRPRPYTNPRP            -1.17
3  RRIRFRPPRLPRPRPRPSISPRP            -1.18
4  RRIRLRPPRLPRPRPRPCVNPRP         -0.00681

Now for a further sequence.
*Q* For "RRIRKRPPRLPRPRPRPMRFPRP" , what is its reported shrunken log2 fold change?
*A* 0.123

----------
Test system: Escherichia coli TOP10;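 note: peptides expressed intracellularly from a pBAD plasmid library in pooled LB shake-flask culture, induced with 0.3% L-arabinose, DNA abundance read by NGS, three biological replicates, DESeq2 with apeglm shrinkage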
Test: shrunken log2 fold change of peptide-encoding DNA abundance (4.5 h post-induction vs induction); higher = less antimicrobial activity (less host growth inhibition)
Run Conditions: time post-induction: 4.5 h; library: site-saturation at positions 5, 18, 19, 20
Test Readout: shrunken log2 fold change
I'd appreciate a reply containing only the number, no unit.

Previously resolved entries follow.
            sequence_input  recorded_result
0  RRIRERPPRLPRPRPRPNDVPRP           0.0254
1  RRIRYRPPRLPRPRPRPTFGPRP          -0.0386
2  RRIRIRPPRLPRPRPRPWRTPRP            -1.03

*Q* For "RRIRLRPPRLPRPRPRPCNCPRP" , what is its reported shrunken log2 fold change?
*A* 0.045

*Q* For "RRIRKRPPRLPRPRPRPQHVPRP" , what is its reported shrunken log2 fold change?
*A* -0.124

*Q* For "RRIRARPPRLPRPRPRPVPIPRP" , what is its reported shrunken log2 fold change?
*A* 0.0735

*Q* For "RRIRKRPPRLPRPRPRPELAPRP" , what is its reported shrunken log2 fold change?
*A* 2.83

*Q* For "RRIRQRPPRLPRPRPRPVSCPRP" , what is its reported shrunken log2 fold change?
*A* 0.0853
